System: MCF7
Test: Cytotoxicity against human MCF7 cells assessed as reduction in cell viability incubated for 24 hrs by MTT assay
Format: functional, cell-based
Settings: MCF7, 24 h
readout: pIC50
By convention, pIC50 is the negative base-10 log of a molar concentration.

Tell us which pIC50 value is on record for "CC(=O)O[C@H]1CC[C@@]2(C)C(=CC[C@H]3[C@@H]4C[C@@H]5O[C@H](CC[C@@H](C)CO)[C@@H](C)[C@@H]5[C@@]4(C)CC[C@@H]32)C1"
4.96

###

Tested on: HepG2
Assay: Antiproliferative activity against human HepG2 cells assessed as reduction in cell growth
Format: functional, cell-based
readout: IC50 (µM)
Field: numeric (µM). Do not append units.

Supply IC50 measured with HepG2 for "C[C@@H]1CC[C@@]2(OC1)O[C@H]1C[C@H]3[C@@H]4CC=C5C[C@@H](OC6=C(Cl)C(=O)c7ccccc7C6=O)CC[C@]5(C)[C@H]4CC[C@]3(C)[C@H]1[C@@H]2C" .
17.5

###

Listed below: IC50 values for each entry.
System: HepG2
Test: Antiproliferative activity against human HepG2 cells assessed as reduction in cell viability measured for 24 hrs by MTT assay
Assay type: functional, cell-based
Details: HepG2, 24 h
Please reply with the bare figure in µM and do not write the unit itself.

A selection of reference data follows.
Using the record for "C[C@@H](CO)CC[C@H]1O[C@H]2C[C@H]3[C@@H]4CC=C5C[C@@H](OC6=C(Cl)C(=O)c7ccccc7C6=O)CC[C@]5(C)[C@H]4CC[C@]3(C)[C@H]2[C@@H]1C" , state its measured IC50.
3.85

Input "Cc1ccc2c(n1)C(=O)C(Cl)=C(O[C@H]1CC[C@@]3(C)C(=CC[C@H]4[C@@H]5C[C@@H]6O[C@H](CC[C@@H](C)CO)[C@@H](C)[C@@H]6[C@@]5(C)CC[C@@H]43)C1)C2=O" , output reported IC50.
5.36

Now for a further compound.
Provide only the value of recorded IC50 for "C[C@H](CC[C@H]1O[C@H]2C[C@H]3[C@@H]4CC=C5C[C@@H](OC6=C(Cl)C(=O)c7ncccc7C6=O)CC[C@]5(C)[C@H]4CC[C@]3(C)[C@H]2[C@@H]1C)CO[Si](C)(C)C(C)(C)C"
12.2

###

Test system: A549
Assay: Cytotoxicity against human A549 cells assessed as reduction in cell growth incubated for 48 hrs by SRB assay
Format: functional, cell-based
Conditions: A549, 48 h
readout: pIC50
Please note pIC50 is a logarithmic value: minus log10 of concentration in mol/L. Answer with that number alone.

Query pIC50 for "C[C@H]1CO[C@@]2(O[C@H]3C[C@H]4[C@@H]5/C(=N/CCCCCCC(=O)O)C=C6C[C@@H](O)CC[C@]6(C)[C@H]5CC[C@]4(C)[C@H]3[C@@H]2C)/C(=N/O)C1"
4.77

###

System: HeLa
Assay: Antiproliferative activity against human HeLa cells assessed as reduction in cell growth after 48 hrs by MTT assay
Assay type: functional, cell-based
readout: IC50 (µM)
Write the answer as a number in µM, unit excluded.

Please list IC50 recorded for the molecule C[C@@H]1CC[C@@]2(OC1)O[C@H]1C[C@H]3[C@@H]4CC=C5C[C@@H](O)CC[C@]5(C)[C@H]4CC[C@]3(C)[C@H]1[C@@H]2C [DISOGENIN]
31.4

Determine its reported IC50: C[C@@H]1CC[C@@]2(OC1)O[C@H]1C[C@H]3[C@@H]4CC=C5C[C@@H](O[C@@H]6O[C@H](CO)[C@@H](O)[C@H](O)[C@H]6O)CC[C@]5(C)[C@H]4CC[C@]3(C)[C@H]1[C@@H]2C [DISOGLUSIDE]
39.1

Give the reported value of IC50 for this record: C[C@@H]1CC[C@@]2(OC1)O[C@H]1C[C@H]3[C@@H]4CC=C5C[C@@H](O[C@@H]6O[C@H](CO)[C@@H](O[C@@H]7O[C@@H](C)[C@H](O)[C@@H](O)[C@H]7O)[C@H](O)[C@H]6O[C@@H]6O[C@@H](C)[C@H](O)[C@@H](O)[C@H]6O)CC[C@]5(C)[C@H]4CC[C@]3(C)[C@H]1[C@@H]2C [DIOSCIN]
2

Fill in IC50 for record "C[C@@H]1CC[C@@]2(OC1)O[C@H]1C[C@H]3[C@@H]4CC=C5C[C@@H](O[C@@H]6O[C@H](CO)[C@@H](O[C@@H]7O[C@@H](C)[C@H](O)[C@@H](O)[C@H]7O)[C@H](O)[C@H]6O)CC[C@]5(C)[C@H]4CC[C@]3(C)[C@H]1[C@@H]2C"
45.1
